# Tested on: Saccharomyces cerevisiae;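 note: PSI is a weighted mean of sequencing reads over stability bins, variants kept only with over 10 reads, mCherry proximal and sfGFP distal, peptide attached via GGGS linker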
# ASSAY REMARKS: protein stability index of tFT-peptide fusion (C-terminal peptide) (PSI (0-1 scale)); higher = more stable (slower turnover)
# RUN PARAMETERS: genetic background: wild type; temperature: 30 C
MEASURE NAME: protein stability index
Enter a number only.

- SEQUENCE DATA: "RTGTGTRTRPSR"
  TESTED TARGET: "Saccharomyces cerevisiae"
  VALUE OBSERVED: 0.701
- SEQUENCE DATA: "AGARGVAGWLPR"
  TESTED TARGET: "Saccharomyces cerevisiae"
  VALUE OBSERVED: 0.684
- SEQUENCE DATA: "FSLPLCAITGPQ"
  TESTED TARGET: "Saccharomyces cerevisiae"
  VALUE OBSERVED: 0.702
- SEQUENCE DATA: "NPHRRPPRAPWP"
  TESTED TARGET: "Saccharomyces cerevisiae"
  VALUE OBSERVED: 0.689

Let's switch to this sequence now.
According to the records, this sequence AGTHRDLFQRWS displays protein stability index of 0.711
